Readings of LC retention time for the listed molecules
Experiment Notes: RP, Thermo Scientific Acclaim RSLC 120 C18, 100 × 2.1 mm, 2.2 µm, 30 °C, 0.2 mL/min, estimated dead time 1.1 min; A: 90% water + 10% methanol + 0.01% formic acid + 5 mM ammonium formate, pH 3.61; B: methanol + 0.01% formic acid + 5 mM ammonium formate, pH 3.61; gradient (min/%B) 0/1 1/1 2/39 13/99.9 15/99.9 15.1/1 20.1/1
Measurement Context: stereoisomer not certain
Parameter Measured: LC retention time

{"columns": ["Molecule", "Recorded Measurement"],
 "data": [
  ["Cn1sc(Cl)cc1=O [CMI (5-Chloro-2-methyl-4-isothiazolin-3-on)]", "4.51 min"],
  ["CNC(=O)ON=C(C)SC [Methomyl]", "4.16 min"],
  ["CCN(CC)CCOC(=O)C(c1ccccc1)C1CCCCC1 (stereo unspecified) [Drofenine]", "9.19 min"],
  ["CC(C)(c1ccc(OCC(O)CCl)cc1)c1ccc(OCC(O)CCl)cc1 (stereo unspecified) [Bisphenol<U+00A0>A bis(3-chloro-2-hydroxypropyl) ether]", "11.4 min"],
  ["O=C1Nc2ccc(Br)cc2C(c2ccccc2Cl)=NC1O (stereo unspecified) [Phenazepam- 3-Hydroxy]", "8.34 min"],
  ["CC(C)(c1ccc(OCC(O)CO)cc1)c1ccc(OCC2CO2)cc1 (stereo unspecified) [Bisphenol<U+00A0>A (2,3-dihydroxypropyl) glycidyl ether]", "9.52 min"],
  ["Cc1ccc(C(=O)c2ccc(CC(=O)O)n2C)cc1 [Tolmetin]", "7.89 min"],
  ["CC(C)(C)C(O)C(Cc1ccc(Cl)cc1Cl)n1cncn1 (stereo unspecified) [Diclobutrazol]", "10.7 min"],
  ["C=CC(N)CCC(=O)O (stereo unspecified) [Vigabatrin]", "1.38 min"],
  ["CN(C)C1CSSSC1 [Thiocyclam]", "3.16 min"],
  ["On1nnc2ccccc21 [Benzotriazole-1-Hydroxy]", "3.88 min"],
  ["Nc1ccc(S(=O)(=O)Nc2ccccn2)cc1 [Sulfapyridine]", "3.8 min"],
  ["CN(C)CCC=C1c2ccccc2COc2ccccc21 [Doxepin]", "7.01 min"],
  ["Cc1nnc2n1-c1ccc(Br)cc1C(c1ccccn1)=NC2 [Pyrazolam]", "6.27 min"],
  ["Cln1nnc2ccccc21 [Benzotriazole-chloro]", "6.53 min"],
  ["CNc1nc(C)c(C)c(OC(=O)N(C)C)n1 [Pirimicarb-desmethyl]", "5.89 min"],
  ["CN(C)CCC=C1c2ccccc2COc2ccc(CC(=O)O)cc21 [Olopatadine]", "6.89 min"],
  ["Cc1cc(Cl)ccc1N=CN(C)C [Chlordimeform]", "4.64 min"],
  ["Nc1ccc(N=Nc2ccccc2)c(N)n1 [Phenazopyridine]", "8.49 min"],
  ["CC(C)(C)C(=O)C(Oc1ccc(Cl)cc1)n1cncn1 (stereo unspecified) [Triadimefon]", "9.68 min"],
  ["CNC(C)C(=O)c1ccc(F)cc1 (stereo unspecified) [Methcathinone (4-F-/ 4-FMC. Flephedrone)]", "3.91 min"],
  ["CCOP(=S)(OCC)SCCSCC [Disulfoton]", "11.5 min"],
  ["CCCCN1CC(=O)N2C(Cc3c([nH]c4ccccc34)C2c2ccc3c(c2)OCO3)C1=O (stereo unspecified) [Tadalafil-n-Butyl]", "10.2 min"],
  ["CC(COc1ccc(C(C)(C)C)cc1)OS(=O)OCCCl (stereo unspecified) [Aramite (total)]", "12.2 min"],
  ["CN1C2CC(OC(=O)C(CO)c3ccccc3)CC1C1OC12 (stereo unspecified) [Scopolamine]", "3.83 min"],
  ["CC12CCC(=O)C=C1CCC1C2C(=O)CC2(C)C1CCC2(O)C(=O)CO (stereo unspecified) [Cortisone E (4-Pregnene-17.21-diol-3.11.20-trione)]", "7.41 min"],
  ["CCNC(C)Cc1ccccc1 (stereo unspecified) [Amphetamine-N-Ethyl]", "4.4 min"],
  ["CSc1nc2cc(Oc3cccc(Cl)c3Cl)c(Cl)cc2[nH]1 [Triclabendazole]", "12 min"],
  ["COc1ccc(CCN(C)CCCC(C#N)(c2ccc(OC)c(OC)c2)C(C)C)cc1OC (stereo unspecified) [Verapamil]", "7.03 min"],
  ["Cc1noc(NS(=O)(=O)c2ccc(N)cc2)c1C [Sulfisoxazole]", "4.71 min"],
  ["CC12CCC3c4ccc(O)cc4CCC3C1CCC2=O (stereo unspecified) [E1 (1-3-5(10)-estratrien-3-ol-17-one estrone)]", "9.56 min"],
  ["Cc1cnc2c(C(=O)O)c(Cl)ccc2c1 [Quinmerac]", "4.75 min"],
  ["C#CC1(O)CCC2C3CCC4=CC(=O)CCC4C3CCC21C (stereo unspecified) [Norethisterone]", "9.15 min"],
  ["CC12CCC(=O)C=C1CCC1C2C(O)CC2(C)C(C(=O)CO)CCC12 (stereo unspecified) [Corticosterone]", "8.74 min"],
  ["C#CC1(OC(C)=O)CCC2C3CCC4=CC(=O)CCC4C3CCC21C (stereo unspecified) [Norethisterone acetate]", "10.8 min"],
  ["CCCc1nn(C)c2c(=O)[nH]c(-c3cc(S(=O)(=O)N4CCN(C5CCCC5)CC4)ccc3OCC)nc12 [Cyclopentynafil]", "9.01 min"]
]}
